# method_description: basal MM1S mitochondrial membrane potential changes, profiling panel, cell-based, JC-1 fluorescence, 24 h, 100 nL compound (AID 1170); note: test concentration not given here
# measurement_setup: higher = more signal

| compound | z-score |
| --- | --- |
| CC(C)CON=C1C[C@@H](O)[C@@H](O)[C@@H]2[C@@H]3C(=O)N(c4cccc(Oc5ccccc5)c4)C(=O)[C@@H]3CC[C@H]12 | -0.309 |
| CC(=O)OC[C@H]1O[C@H](C#CC(C)(C)C)C=C[C@@H]1OC(C)=O | 0.085 |
| COc1ccc(COC(=O)NN=C2C[C@@H](O)[C@@H](O)[C@@H]3[C@@H]4C(=O)N(C(C)(C)C)C(=O)[C@@H]4CC[C@H]23)cc1 | -0.527 |
| C[C@@H](ON=C1[C@H]2CCn3c(=O)n(-c4ccccc4)c(=O)n3[C@H]2[C@H](O)[C@@H]2O[C@H]12)c1cn([C@H](CO)Cc2ccccc2)nn1 | -0.00977 |
| CO[C@@H]1COC(=O)CC=C[C@H](C)COC(=O)[C@H](C)NC(=O)CC=C[C@H]1C | 0.955 |
| CCOC(=O)[C@H](Cc1ccccc1)NC(=O)CCC1CC(OC(=O)NCc2cccc3ccccc23)CC2(CCCC(COC(=O)NCCCN3CCCC3=O)O2)O1 (some centres not stated) | -0.5 |
| CCCNC(=O)OC[C@H]1O[C@H](CCON=C(C)CCN2CCc3nc(-c4ccccc4)c(-c4ccccc4)cc3C2)C=C[C@@H]1Oc1ccc(OC)cc1 | 0.483 |
